assay explanation: Pharmacokinetics in rats after intravenous and oral gavage dosing, plasma LC-MS/MS
Type: in vivo
applied conditions: both sexes, Sprague-Dawley, rat; SD rats, plasma; 15 mg/kg oral gavage / 1 mg/kg intravenous; table does not state the route
measurement kind: Cmax (nM)
Give bare numbers, in nM.

Asked: Give Cmax for the following compound: O=c1cc(-c2ccccc2)oc2c(O)c(O)ccc12 [7,8-dihydroxyflavone, 7,8-dihydroxyflavone, reference compound]
Given back: 75.1

###

I'd appreciate it if you could supply half-life values for the items below.
assay explanation: Pharmacokinetics in rats after intravenous and oral gavage dosing, plasma LC-MS/MS
Type: in vivo
applied conditions: rat, in vivo; SD rats, plasma; 15 mg/kg oral gavage / 1 mg/kg intravenous; table does not state the route; read-out: t1/2 (converted)
Give bare numbers, in min.

>  <smiles input>
O=c1cc(C2CCNCC2)oc2c(O)c(O)ccc12

>  <unit tag>
min

>  <half-life>
110

$$$$
>  <smiles input>
O=c1cc(C2CCNCC2)oc2c(F)c(F)ccc12

>  <unit tag>
min

>  <half-life>
684

$$$$

State recorded half-life for all listed molecules.
1. COc1ccc2c(=O)cc(C3CCNCC3)oc2c1O
2. [2H]c1c([2H])c([2H])c(-c2cc(=O)c3ccc(O[C@@H]4O[C@H](C(=O)O)[C@@H](O)[C@H](O)[C@H]4O)c(O)c3o2)c([2H])c1[2H]
3. O=c1cc(C2CCNCC2)oc2c(F)c(O)ccc12

Given back:
1: 154; 2: 323; 3: 272
